Recorded values, source ChEMBL document CHEMBL1155870.

- test system: Peroxisome proliferator-activated receptor alpha (Homo sapiens)
- assay procedure: Agonist activity at PPARalpha expressed in human HepG2 cells at 10 uM assessed as induction of receptor transactivation by reporter gene assay relative to control
- Format: functional, cell-based
Record form. Attribute: fold change (FC). Fill in for each entry.
Give bare numbers.

Worked examples, 3 compounds total:
Cc1oc(-c2ccccc2)nc1COc1ccc([C@H]2CO[C@@](C)(C(=O)O)OC2)cc1 ... 3
Cc1cccc(Nc2cc(Cl)nc(SCC(=O)O)n2)c1C ... 4.4
Cc1ccc(-c2nc(COc3ccc(C[C@H]4CO[C@@](C)(C(=O)O)OC4)cc3)c(C)o2)cc1 ... 8.2

Now for a further compound.
Query string: Give the reported fold change (FC) for Cc1oc(C(C)(C)C)nc1CCOc1ccc(C[C@H]2CO[C@@](C)(C(=O)O)OC2)cc1 (system: Peroxisome proliferator-activated receptor alpha (Homo sapiens)).
Result string: 5.8
